experiment: Chemiluminescence properties of NIR luminophores under physiological conditions
Type: physicochemical
stated conditions: physiological conditions
Description: All reactions requiring anhydrous conditions were performed under an argon atmosphere. All reactions were carried out at room temperature unless stated otherwise. Chemicals and solvents were either A.R. grade or purified by standard techniques. […] Preparative RP-HPLC: C18 5u, 250×21 mm, eluent given in parentheses. ^1H-NMR spectra were recorded using Bruker Avance operated at 400 MHz. ^13C-NMR spectra were recorded using Bruker Avance operated at 100 MHz. […] Mass spectra were measured on Waters Xevo TQD. […]
Listing of recorded λ maxCL (maximal chemiluminescence emission) by entry.
experimental endpoint: λ maxCL (maximal chemiluminescence emission) (nm)

# compound, reported measurement
measured = [
    ("COC1(c2ccc(/C=C/C3=CC(=C(C#N)C#N)c4ccccc4O3)c(O)c2Cl)OOC12C1CC3CC(C1)CC2C3 (stereo not shown)", 730),
    ("COC1(c2cc(O)c(/C=C/C(=O)O)cc2/C=C/C2=C(C#N)C(=C(C#N)C#N)OC2(C)C)OOC12C1CC3CC(C1)CC2C3 (stereo not shown)", 670),
    ("COC1(c2cc(O)c(/C=C/C(=O)O)cc2/C=C/C2=CC(=C(C#N)C#N)c3ccccc3O2)OOC12C1CC3CC(C1)CC2C3 (stereo not shown)", 690),
    ("COC1(c2cc(O)ccc2/C=C/C2=CC(=C(C#N)C#N)c3ccccc3O2)OOC12C1CC3CC(C1)CC2C3 (stereo not shown)", 660),
]

Cited source for all entries: patent US11241507B2
